molecular target: Plasminogen (Homo sapiens, UniProt P00747)
Sequence (P00747 97-580 limits assumed): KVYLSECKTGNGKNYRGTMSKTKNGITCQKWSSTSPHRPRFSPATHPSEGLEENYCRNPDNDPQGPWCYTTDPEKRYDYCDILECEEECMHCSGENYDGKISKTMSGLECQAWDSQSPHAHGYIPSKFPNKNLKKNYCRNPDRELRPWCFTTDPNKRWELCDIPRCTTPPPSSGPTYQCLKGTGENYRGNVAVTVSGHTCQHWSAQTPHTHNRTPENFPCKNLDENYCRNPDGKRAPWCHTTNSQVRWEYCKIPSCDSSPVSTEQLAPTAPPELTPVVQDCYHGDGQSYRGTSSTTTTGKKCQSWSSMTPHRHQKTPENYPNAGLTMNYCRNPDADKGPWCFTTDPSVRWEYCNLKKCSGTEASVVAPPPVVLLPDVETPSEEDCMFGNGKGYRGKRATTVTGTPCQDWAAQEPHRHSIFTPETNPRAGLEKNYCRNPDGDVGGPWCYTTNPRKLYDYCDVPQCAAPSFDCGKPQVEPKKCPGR
Sequence (P00747 581-810 limits assumed): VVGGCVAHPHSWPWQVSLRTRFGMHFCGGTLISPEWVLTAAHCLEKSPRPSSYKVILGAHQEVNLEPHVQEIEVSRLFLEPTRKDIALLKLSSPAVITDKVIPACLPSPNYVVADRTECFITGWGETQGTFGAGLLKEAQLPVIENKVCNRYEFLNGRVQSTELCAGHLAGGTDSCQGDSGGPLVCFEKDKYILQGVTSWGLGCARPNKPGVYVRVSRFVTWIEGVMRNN
QUANTITY_MEASURED: Ki

smiles_string=Cc1cc(OCCCONC(=N)N)cc(OS(=O)(=O)c2ccccc2S(C)(=O)=O)c1 result="> 22 µM"

---

target: UniProtKB P07477
Sequence (P07477 whole entry): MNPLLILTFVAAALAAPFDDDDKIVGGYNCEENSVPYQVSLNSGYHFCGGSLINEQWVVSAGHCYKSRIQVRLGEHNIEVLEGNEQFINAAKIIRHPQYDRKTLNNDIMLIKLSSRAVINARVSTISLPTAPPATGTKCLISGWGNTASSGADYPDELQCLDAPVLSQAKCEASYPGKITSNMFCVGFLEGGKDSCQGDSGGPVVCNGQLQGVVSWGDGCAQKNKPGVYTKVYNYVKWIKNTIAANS
QUANTITY_MEASURED: Ki

smiles_string=Cc1cc(OCCCONC(=N)N)cc(OS(=O)(=O)c2ccccc2S(C)(=O)=O)c1 quantity_measured=Ki result="> 22 µM"

---

assay: Plasma clearance rate by iv administration in dog at a dose of 6 mg/kg; type: ADME, organism-based, Canis lupus familiaris; parameters: dose 6 mg/kg, route intravenous
QUANTITY_MEASURED: clearance (mL/min/kg)

smiles_string=Cc1cc(OCCCONC(=N)N)cc(OS(=O)(=O)c2ccccc2S(C)(=O)=O)c1 numeric_value=6.9

---

test: Disassociation constant was determined; type: ADME
QUANTITY_MEASURED: pKa

smiles_string=Cc1cc(OCCCONC(=N)N)cc(OS(=O)(=O)c2ccccc2S(C)(=O)=O)c1 numeric_value=7.05

---

test: Half life period by iv administration in dog at a dose of 6 mg/kg; format: ADME, organism-based, Canis lupus familiaris; design: dose 6 mg/kg, route intravenous; details: in vivo
QUANTITY_MEASURED: half-life

smiles_string=Cc1cc(OCCCONC(=N)N)cc(OS(=O)(=O)c2ccccc2S(C)(=O)=O)c1 result="7.3 h"

---

assay: Oral bioavailability in dog; type: ADME, organism-based, Canis lupus familiaris; details: in vivo
QUANTITY_MEASURED: bioavailability (%)

smiles_string=Cc1cc(OCCCONC(=N)N)cc(OS(=O)(=O)c2ccccc2S(C)(=O)=O)c1 numeric_value=95

---

Prothrombin (Homo sapiens, UniProt P00734): reported log10 Ki for various compounds.
QUANTITY_MEASURED: log10 Ki (log10 of the value in nM)

compound=Cc1cc(OCC(F)(F)CON=C(N)N)cc(OS(=O)(=O)c2ccccc2S(C)(=O)=O)c1 quantity_measured="log10 Ki" numeric_value=2.56
compound=Cc1cc(OCCCONC(=N)N)cc(OS(=O)(=O)c2ccc(S(C)(=O)=O)cc2S(C)(=O)=O)c1 quantity_measured="log10 Ki" numeric_value=2.87
compound=Cc1cc(OCCCON=C(N)N)cc(OS(=O)(=O)c2cccc3cnccc23)c1 quantity_measured="log10 Ki" numeric_value=1.12
compound=Cc1cc(OCCCON=C(N)N)cc(OS(=O)(=O)c2cccc3c2NCCC3)c1 quantity_measured="log10 Ki" numeric_value=1.49
compound=Cc1cc(OCCCONC(=N)N)cc(OS(=O)(=O)c2cccc3cccnc23)c1 quantity_measured="log10 Ki" numeric_value=0.83
compound="Cc1cc(OCC(F)CON=C(N)N)cc(OS(=O)(=O)c2ccccc2S(C)(=O)=O)c1 (centres undefined)" quantity_measured="log10 Ki" numeric_value=2.06
compound=CCc1cc(OCCCONC(=N)N)cc(OS(=O)(=O)c2ccccc2S(C)(=O)=O)c1 quantity_measured="log10 Ki" numeric_value=1.47
compound=Cc1cc(OCCCONC(=N)N)cc(OS(=O)(=O)c2ccc3c(c2)S(=O)(=O)CC3)c1 quantity_measured="log10 Ki" numeric_value=2.01
compound=CS(=O)(=O)c1ccccc1S(=O)(=O)Oc1cc(F)cc(OCC2(CON=C(N)N)CC2)c1 quantity_measured="log10 Ki" numeric_value=1.69

---

biological target: Chymotrypsinogen B (Homo sapiens, UniProt P17538)
Sequence (P17538 34-164 limits assumed, other chains not shown): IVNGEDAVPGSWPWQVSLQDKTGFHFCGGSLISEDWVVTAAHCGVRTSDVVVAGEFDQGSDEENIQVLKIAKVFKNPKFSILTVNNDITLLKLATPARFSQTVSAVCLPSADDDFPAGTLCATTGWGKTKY
Sequence (P17538 167-263 limits assumed, other chains not shown): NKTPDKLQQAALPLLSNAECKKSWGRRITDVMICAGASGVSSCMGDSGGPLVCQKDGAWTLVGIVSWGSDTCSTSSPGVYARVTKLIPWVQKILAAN
QUANTITY_MEASURED: Ki

smiles_string=Cc1cc(OCCCONC(=N)N)cc(OS(=O)(=O)c2ccccc2S(C)(=O)=O)c1 result="> 22 µM"
